Can you tell me IC50 for the items I'm about to list?
Target: UniProtKB Q02127
Sequence (Q02127 whole entry): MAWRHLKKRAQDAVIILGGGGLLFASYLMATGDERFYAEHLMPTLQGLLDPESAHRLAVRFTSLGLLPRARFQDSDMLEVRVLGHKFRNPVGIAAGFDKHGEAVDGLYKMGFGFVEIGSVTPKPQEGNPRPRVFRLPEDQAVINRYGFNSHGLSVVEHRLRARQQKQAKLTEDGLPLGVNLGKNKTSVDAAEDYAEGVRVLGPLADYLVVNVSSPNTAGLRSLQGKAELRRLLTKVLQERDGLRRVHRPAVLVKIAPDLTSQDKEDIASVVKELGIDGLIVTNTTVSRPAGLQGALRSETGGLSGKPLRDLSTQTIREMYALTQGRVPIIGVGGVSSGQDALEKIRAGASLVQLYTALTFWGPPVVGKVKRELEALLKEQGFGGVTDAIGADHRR
Test: Inhibition of human DHODH activity assay (DCIP chromogen reduction)
Details: read-out: hDHODH IC50; human enzyme extract, 200 μM CoQD, 100 μM L-DHO, 120 μM DCIP, 10 min room temperature, absorbance 600 nm

Record O=C(O)c1cc(C2CC2)cnc1Nc1c(F)cc(-c2cccc(OC3CC3)c2)cc1F [Example 50] has UniProtKB Q02127 IC50 equal to 6 nM

The compound Cc1ccccc1-c1cc(F)c(Nc2ncccc2C(=O)O)c(F)c1 [Example 61] , tested on UniProtKB Q02127, showed IC50 of 11 nM

IC50 of COc1cccc(-c2ccc(Nc3cnccc3C(=O)O)c(OC(F)(F)F)c2)c1 [Example 23] , assay on UniProtKB Q02127, is 14 nM

The compound CCc1cnc(Nc2c(F)cc(-c3cccc(OC)c3)cc2F)c(C(=O)O)c1 [Example 40] , tested on UniProtKB Q02127, showed IC50 of 12 nM

Data provenance: patent US8691852B2
